- tested on: Rap guanine nucleotide exchange factor 3 (Homo sapiens) (UniProt O95398)
- Sequence (O95398 whole entry, looked up): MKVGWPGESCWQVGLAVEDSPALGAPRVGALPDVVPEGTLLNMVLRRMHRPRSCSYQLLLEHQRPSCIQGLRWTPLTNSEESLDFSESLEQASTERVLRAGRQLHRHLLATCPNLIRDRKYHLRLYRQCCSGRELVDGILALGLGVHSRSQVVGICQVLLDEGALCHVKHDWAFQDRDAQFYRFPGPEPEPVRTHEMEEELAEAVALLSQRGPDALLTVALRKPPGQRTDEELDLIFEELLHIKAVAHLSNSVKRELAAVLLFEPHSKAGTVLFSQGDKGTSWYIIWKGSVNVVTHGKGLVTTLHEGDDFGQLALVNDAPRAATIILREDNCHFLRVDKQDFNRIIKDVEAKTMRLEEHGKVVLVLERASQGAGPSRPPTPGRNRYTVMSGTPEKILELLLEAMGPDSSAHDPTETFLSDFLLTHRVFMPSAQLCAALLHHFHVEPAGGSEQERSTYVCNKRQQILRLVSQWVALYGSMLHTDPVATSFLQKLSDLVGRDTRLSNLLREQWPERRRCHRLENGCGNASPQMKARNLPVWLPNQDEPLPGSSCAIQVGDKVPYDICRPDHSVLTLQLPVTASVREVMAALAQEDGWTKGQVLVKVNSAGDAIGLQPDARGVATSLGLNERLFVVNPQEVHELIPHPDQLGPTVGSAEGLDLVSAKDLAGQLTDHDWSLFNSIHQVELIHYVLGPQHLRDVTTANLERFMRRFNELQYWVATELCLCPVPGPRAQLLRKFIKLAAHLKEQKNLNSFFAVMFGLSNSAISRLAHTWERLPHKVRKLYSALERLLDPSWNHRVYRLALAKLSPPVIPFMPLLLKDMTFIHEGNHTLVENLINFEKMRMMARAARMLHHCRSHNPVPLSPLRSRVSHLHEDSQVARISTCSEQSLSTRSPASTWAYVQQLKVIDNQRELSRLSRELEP
- assay overview: Confirmatory qHTS for antagonist of cAMP-regulated guanine nucleotide exchange factor 3 (EPAC1) (AID 1645880); also: nearly all actives have a fitted effect of over 55% in size
- assay context: EPAC1 Rap1B-BODIPY-GDP exchange, fluorescence; series mostly up to 115 µM
- Text: Assay Provider (PI): Xiaodong Cheng Ph.D. The University of Texas Medical Branch, […], TX MLPCN Grant: NS066510 In multi-cellular eukaryotic organisms, the effects of cAMP are transduced by two ubiquitously-expressed intracellular cAMP receptors, the classic protein kinase A/cAMP-dependent protein kinase (PKA/cAPK) and the more recently discovered exchange protein directly activated by cAMP/cAMP-regulated guanine nucleotide exchange factor (EPAC/cAMP-GEF). […]
Inconclusive results are not listed. Active and inactive are the calls of the source. Calls follow the shape of the dose curve; as a rule, active = well fitted inhibition curve with a large enough effect; inconclusive = small, poorly fitted or top-dose-only effect; inactive = no such curve, though single readings can be large or run the other way.
Assign a class; possible classes are 1 (active), -1 (inactive)

Inquiry: Entry COc1ccc(OCc2nc3ccccc3n2Cc2ccccc2Cl)cc1 : call = ?
Reply text: -1

Inquiry: Repeat with Cc1ccc(S(=O)(=O)N2[C@@H](CO)CO[C@H]2CC(=O)c2ccc(F)cc2)cc1
Reply text: -1

Inquiry: Repeat with COC(=O)c1cc2sccc2n1Cc1c(C)cc(C)cc1C
Reply text: -1

Inquiry: Repeat with CCOC(=O)N1CCN(S(=O)(=O)c2cc(-c3nn4c(C)nnc4c4ccccc34)ccc2C)CC1
Reply text: -1

Inquiry: Repeat with CC(=C\c1ccccc1)/C=C1/SC(=S)N(CCCC(=O)O)C1=O
Reply text: 1

Inquiry: Repeat with Cc1cc(O)c(C(=O)/C=C/c2cccc([N+](=O)[O-])c2)c(=O)o1
Reply text: 1

Inquiry: Repeat with CCc1nc2c(OCc3ccc(C#N)cc3)cccn2c1N(C)C(=O)c1ccc(C)cc1
Reply text: -1

Inquiry: Repeat with COc1ccccc1C1SCCN1S(C)(=O)=O (configuration not stated)
Reply text: -1

Inquiry: Repeat with CC(C)(C)c1cc(-c2csc(Nc3ccccc3)[n+]2Cc2ccc(C(=O)O)cc2)cc(C(C)(C)C)c1O
Reply text: 1

Inquiry: Repeat with CC(C)O/C(=N\S(=O)(=O)c1ccc(Cl)cc1)c1ccccc1
Reply text: -1

Inquiry: Repeat with Fc1ccc(-c2noc3ncnc(N4CCN(c5ccccc5)CC4)c23)cc1
Reply text: -1

Inquiry: Repeat with CCCCCCOC(=O)C(C#N)c1nc2ccccc2nc1N1CCOCC1 (configuration not stated)
Reply text: 1

Inquiry: Repeat with O=C(COC(=O)c1cccc(-n2cnnn2)c1)c1ccc(F)cc1
Reply text: -1

Inquiry: Repeat with COc1ccccc1C(=O)NC(=O)Cn1nc(C)c([N+](=O)[O-])c1C
Reply text: -1

Inquiry: Repeat with COc1cccc(OCCOc2ccc(/C=C3\C(=N)N4N=C(S(C)(=O)=O)SC4=NC3=O)cc2OC)c1
Reply text: 1

Inquiry: Repeat with CCN(CC)c1nc(SCC(=O)O)nc(N(CC)CC)n1
Reply text: -1

Inquiry: Repeat with CCN1C/C(=C/c2ccc(N3CCOCC3)cc2)C(=O)/C(=C/c2ccc(N3CCOCC3)cc2)C1
Reply text: -1

Inquiry: Repeat with Cc1cccc(Nc2c([N+](=O)[O-])c(=O)oc3ccccc23)c1
Reply text: -1

Inquiry: Repeat with C#CC(c1ccccc1)(c1ccccc1)n1ccnc1
Reply text: -1

Inquiry: Repeat with Cc1ccc(Cl)cc1NC(=O)c1ccccc1OCC(=O)Nc1ccc(Cl)cc1
Reply text: -1

Inquiry: Repeat with Cc1ccc(S(=O)(=O)NCCC(=O)N2CC(C)OC(C)C2)cc1 (configuration not stated)
Reply text: -1

Inquiry: Repeat with COc1cccc(NC(=O)Cn2cc(C(=O)C3CC3)c3ccccc32)c1
Reply text: -1

---

- assay overview: qHTS Assay for Lipid Storage Modulators (AID 1519)
- assay context: Drosophila S3 cells, BODIPY lipid droplet/cell ratio, laser cytometry; measured here: lipid channel max response; cells loaded with oleic acid
Records with an inconclusive call do not appear.
readout label: max response (%)
# value in %; strip the unit string

Inquiry: For the molecule CC1(C)OC2C[C@](O)(C(N)=O)C[C@H](O)[C@H]2O1 (stereo not given in full) , what max response is on record?
Reply text: 23.7

Inquiry: Repeat with O=c1[nH]c(=O)n([C@@H]2O[C@H](CO)[C@@H](O)[C@H]2O)cc1Br
Reply text: -16.6

Inquiry: Repeat with COc1cc(/C=C/C(=O)O)cc(OC)c1OC
Reply text: 14.9

Inquiry: Repeat with COC(=O)CC1C(C)(C)C(OC(C)=O)C2CC3=C4CC(=O)OC(c5ccoc5)[C@]4(C)CCC3[C@@]1(C)C2=O (stereo not given in full)
Reply text: 10

Inquiry: Repeat with COC1C[C@@H](O[C@@H]2C(C)C(=O)OC(C)C(C)C(O)C(C)C(=O)[C@@]3(CO3)CC(C)C(OC3OC(C)CC(N(C)C)C3O)C2C)OC(C)[C@@H]1O (stereo not given in full)
Reply text: 11

Inquiry: Repeat with C=CCSC[C@@H]1Nc2cc(Cl)c(S(N)(=O)=O)cc2S(=O)(=O)N1
Reply text: -22.1

Inquiry: Repeat with CSc1ncnc2c1ncn2C1OC(CO)C(O)C1O (stereo not given)
Reply text: -24.7

Inquiry: Repeat with NCC1O[C@@H](O[C@H]2C(O)C(O[C@@H]3C(O[C@H]4OC(CO)C(O)C(O)C4N)C(N)CC(N)[C@H]3O)O[C@@H]2CO)C(N)C(O)C1O (stereo not given in full)
Reply text: 35.3

Inquiry: Repeat with O=C/C=C/c1ccc(O)cc1
Reply text: 16.6

Inquiry: Repeat with CN1CCC2(CC1)CCN(C(=O)c1ccncc1)CC2
Reply text: 6.89

Inquiry: Repeat with COC(=O)[C@H]1[C@@H]2C[C@@H]3c4[nH]c5ccccc5c4CCN3C[C@H]2CC[C@H]1O
Reply text: 17.8

Inquiry: Repeat with [N-]=[N+]=NCC1OC(n2cnc3c(=O)[nH]c(N)nc32)C(O)C1O (stereo not given)
Reply text: 19.1

Inquiry: Repeat with COc1ccccc1-c1coc2cc(O)ccc2c1=O
Reply text: 10.3

Inquiry: Repeat with CN(C)c1ccc(-c2nccc(NCc3ccccc3)n2)cc1
Reply text: -1.11

Inquiry: Repeat with COc1c2ccoc2nc2c(OC)c(OCC(O)C(C)(C)O)ccc12 (stereo not given)
Reply text: 29.2

Inquiry: Repeat with COC1[C@H](OC(N)=O)C(O)[C@H](Oc2ccc3c(O)c(NC(=O)c4ccc(O)c(CC=C(C)C)c4)c(=O)oc3c2C)OC1(C)C (stereo not given in full)
Reply text: 25.2

Inquiry: Repeat with CC1C(=O)CCC2[C@]1(C)CCC1[C@]2(C)CC[C@@]2(C)C3CC(C)(C)CC[C@]3(C)CC[C@@]12C (stereo not given in full)
Reply text: 14.3

Inquiry: Repeat with CC(=O)Oc1ccc2c(c1)CCC1C2CC[C@]2(C)C(=O)CCC12 (stereo not given in full)
Reply text: -17.8

Inquiry: Repeat with CC1OC(OCC2OC(Oc3c(-c4ccc(O)c(O)c4)oc4cc(O)cc(O)c4c3=O)C(O)C(O)C2O)[C@@H](O)C(O)C1O (stereo not given in full)
Reply text: 10.1

Inquiry: Repeat with Cc1cn([C@@H]2C[C@H](N=[N+]=N)[C@H](CO)O2)c(=O)[nH]c1=O
Reply text: -18.3

---

- tested on: Rap guanine nucleotide exchange factor 3 (Homo sapiens) (UniProt O95398)
- assay overview: Counterscreen qHTS for antagonist of cAMP-regulated guanine nucleotide exchange factor 3 (EPAC1) (AID 1645888);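 also: fluorescence loss as bound BODIPY-GDP is released from Rap1B; % of control where 0% means no effect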
- assay context: Rap1B-BODIPY-GDP nucleotide exchange, fluorescence; series mostly up to 154 µM
Inconclusive results are not listed. Calls of active or inactive are those of the source. Calls follow the shape of the dose curve; as a rule, active = well fitted inhibition curve with a large enough effect; inconclusive = small, poorly fitted or top-dose-only effect; inactive = no such curve, though single readings can be large or run the other way.
readout label: activity change, negative = inhibition

Reference set (5 entries):
# compound, test result
records = [
    ("CC1=NOC(=O)/C1=C\\c1ccc(-c2cc(Cl)ccc2Cl)o1", "inactive"),
    ("COC(=O)c1[nH]c2cc(C)ccc2c1NC(=O)CN1CCCc2ccccc21", "inactive"),
    ("Cc1cccc(C(=O)Nc2cccc(C(=O)OCc3cc(=O)n4c5c(sc4n3)CCCC5)c2)c1", "inactive"),
    ("O=C(CCNC(=O)c1ccc(Br)cc1)Nc1ccccc1N1CCOCC1", "inactive"),
    ("COc1ccc(OC)c(Nc2ncc3c(n2)CCN(Cc2cc(OC)c(OC)c(OC)c2)C3)c1", "inactive"),
]

Inquiry: Report activity change, negative = inhibition for COc1ccccc1N1CC(C(=O)Nc2cc(C(F)(F)F)ccc2N2CCCC2)CC1=O (configuration not stated) tested on Rap guanine nucleotide exchange factor 3 (Homo sapiens) (UniProt O95398).
Reply text: -8.33% [at 30.8 µM] (inactive)

Inquiry: Repeat with O=C(O)c1[nH]c2ccccc2c1C(c1cc(Cl)cc([N+](=O)[O-])c1O)c1c(C(=O)O)[nH]c2ccccc12
Reply text: inactive

Inquiry: Repeat with O=C(O)c1cccc(NC(=O)c2cn(-c3ccccc3)nc2-c2cc3ccccc3o2)c1
Reply text: -4.75% [at 30.8 µM] (inactive)

Inquiry: Repeat with CC(=O)CCc1oc2ccc(C)cc2c1-c1ccc(C)o1
Reply text: -33.7% [at 30.8 µM] (inactive)

Inquiry: Repeat with C=CCN(CC=C)Cc1cc(=O)oc2ccc3ccccc3c12
Reply text: -12.3% [at 30.8 µM] (inactive)

Inquiry: Repeat with Cc1ccc(OCC(=O)Nc2ccccc2N2CCCC2)c(C)c1
Reply text: inactive

Inquiry: Repeat with CC1(c2ccccc2)CC(C)(C)N2C(=O)Cc3cccc1c32 (configuration not stated)
Reply text: inactive

Inquiry: Repeat with CCN(CC)c1ccc(C(=O)OCC(=O)NCC2CCCO2)cc1 (configuration not stated)
Reply text: -1.2% [at 30.8 µM] (inactive)

Inquiry: Repeat with Cc1cc(S(=O)(=O)Nc2ccccc2C)ccc1F
Reply text: inactive

Inquiry: Repeat with O=C(c1ccccc1)c1ccc2nc(-c3ccco3)c(-c3ccco3)nc2c1
Reply text: inactive

Inquiry: Repeat with O=c1c2ccccc2[nH]c(=S)n1-c1cccc(S(=O)(=O)N2CCCC2)c1
Reply text: inactive

Inquiry: Repeat with Cc1nnnn1-c1ccc(CC(=O)O)cc1
Reply text: -6.83% [at 30.8 µM] (inactive)

Inquiry: Repeat with Cn1c(=O)c2nc3ccc(NC(=O)C(F)(F)F)cc3nc2n(C)c1=O
Reply text: inactive

Inquiry: Repeat with CNc1ccc(Br)cc(C(=O)/C=C/c2ccc(Cl)cc2Cl)c1=O
Reply text: inactive

Inquiry: Repeat with CC1CN(C(=O)CCC(=O)NCc2cccc(Cl)c2)c2ccccc2S1 (configuration not stated)
Reply text: inactive

Inquiry: Repeat with NC(=O)c1sc(=S)n2c1[nH]c(=O)c1sccc12
Reply text: inactive

Inquiry: Repeat with CC(C(=O)NC1CC(C)(C)NC(C)(C)C1)c1ccc([N+](=O)[O-])cc1 (configuration not stated)
Reply text: inactive

src = PubChem BioAssay (NCATS)
